- assay protocol: Lipophilicity, log P of the compound by […]
- Assay type: physicochemical
- assay context: octanol/water

{"compound": "COc1cc2c(cc1OC)C(=O)C(C(=O)Nc1cccc(F)c1)C2 (configuration not stated)", "logP": 2.36}
{"compound": "CCOc1cccc(NC(=O)C2Cc3cc(OC)c(OC)cc3C2=O)c1 (configuration not stated)", "logP": 2.42}
{"compound": "COc1ccccc1NC(=O)C1Cc2cc(OC)c(OC)cc2C1=O (configuration not stated)", "logP": 2.08}
{"compound": "COc1cc2c(cc1OC)C(=O)C(C(=O)Nc1cccc(Cl)c1)C2 (configuration not stated)", "logP": 2.76}
{"compound": "COc1cc2c(cc1OC)C(=O)C(C(=O)Nc1ccccc1Br)C2 (configuration not stated)", "logP": 3.03}
{"compound": "COc1cc2c(cc1OC)C(=O)C(C(=O)Nc1ccc(C)cc1)C2 (configuration not stated)", "logP": 2.69}
{"compound": "CCOc1ccccc1NC(=O)C1Cc2cc(OC)c(OC)cc2C1=O (configuration not stated)", "logP": 2.42}
{"compound": "COc1cc2c(cc1OC)C(=O)C(C(=O)Nc1ccc(Br)cc1)C2 (configuration not stated)", "logP": 3.03}
{"compound": "COc1cc2c(cc1OC)C(=O)C(C(=O)Nc1ccccc1)C2 (configuration not stated)", "logP": 2.2}
{"compound": "COc1ccc(NC(=O)C2Cc3cc(OC)c(OC)cc3C2=O)cc1 (configuration not stated)", "logP": 2.08}
{"compound": "COc1cc2c(cc1OC)C(=O)C(C(=O)Nc1cccc(Br)c1)C2 (configuration not stated)", "logP": 3.03}
{"compound": "CCc1ccc(NC(=O)C2Cc3cc(OC)c(OC)cc3C2=O)cc1 (configuration not stated)", "logP": 3.11}
{"compound": "COc1cc2c(cc1OC)C(=O)C(C(=O)Nc1ccc(F)cc1)C2 (configuration not stated)", "logP": 2.36}
{"compound": "COc1cc2c(cc1OC)C(=O)C(C(=O)Nc1ccc(Cl)cc1)C2 (configuration not stated)", "logP": 2.76}
{"compound": "CCOc1ccc(NC(=O)C2Cc3cc(OC)c(OC)cc3C2=O)cc1 (configuration not stated)", "logP": 2.42}
{"compound": "CCc1ccccc1NC(=O)C1Cc2cc(OC)c(OC)cc2C1=O (configuration not stated)", "logP": 3.11}
{"compound": "COc1cc2c(cc1OC)C(=O)C(C(=O)Nc1cccc(C)c1)C2 (configuration not stated)", "logP": 2.69}
{"compound": "COc1cc2c(cc1OC)C(=O)C(C(=O)Nc1ccccc1Cl)C2 (configuration not stated)", "logP": 2.76}
{"compound": "COc1cccc(NC(=O)C2Cc3cc(OC)c(OC)cc3C2=O)c1 (configuration not stated)", "logP": 2.08}
{"compound": "COc1cc2c(cc1OC)C(=O)C(C(=O)Nc1ccccc1C)C2 (configuration not stated)", "logP": 2.69}
{"compound": "COc1cc2c(cc1OC)C(=O)C(C(=O)Nc1ccccc1F)C2 (configuration not stated)", "logP": 2.36}
{"compound": "CCc1cccc(NC(=O)C2Cc3cc(OC)c(OC)cc3C2=O)c1 (configuration not stated)", "logP": 3.11}

Measured values drawn from ChEMBL document CHEMBL3632513 for this set.
